Value source: patent US20190338002A1

Quick reference for IC50 among some binders
Biological target: T1, rat beta CGRP (SEQ ID NO: 83) (rat, not fully specified)
T1 construct: also called rat βCGRP; rat β-CGRP
T1 peptide: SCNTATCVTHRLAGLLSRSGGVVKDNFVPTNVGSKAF
Assay: competition ELISA in solution; free mutein detected on plate-bound biotinylated CGRP
The reply should be a number in nM, with the unit left off.

Q: Bench note: what IC50 did lipocalin mutein SEQ ID NO: 4 (designed binder, biotinylated by NHS chemistry for capture in SPR) QDSTSDLIPAPPLSKVPLQQNFQDNQFHGKWYVVGWAGNTLLREDKDPTKMQATIYELKEDKSYNVTWVYFSEKKCNYHIETFVPGSQPGEFTLGTIKSYPGETSILVRVVSTNYNQHAMVFFKGVSQNREIFEITLYGRTKELTSELKENFIRFSKSLGLPENHIVFPVPIDQCIDGSAWSHPQFEK show?
Result: 3

Q: Bench note: what IC50 did lipocalin mutein SEQ ID NO: 3 (designed binder) QDSTSDLIPAPPLSKVPLQQNFQDNQFHGKWYVVGFAGNMWLREDKDPFKMGATIYELKEDKSYNVTWVWFEAKKCDYGINTFVPGSQPGEFTLGGIKSPPGMTSHLVRVVSTNYNQHAMVFFKEVFQNREWFWITLYGRTKELTSELKENFIRFSKSLGLPENHIVFPVPIDQCIDGSAWSHPQFEK show?
Result: 12

Q: Bench note: what IC50 did lipocalin mutein SEQ ID NO: 5 (designed binder) QDSTSDLIPAPPLSKVPLQQNFQDNQFHGKWYVVGRAGNAELREDKDPEKMEATIYELKEDKSYNVTDVGFWQKKCIYVIHTFVPGSQPGEFTLGNIKSYPGTTSALVRVVSTNYNQHAMVFFKVVRQNREWFEITLYGRTKELTSELKENFIRFSKSLGLPENHIVFPVPIDQCIDGSAWSHPQFEK show?
Result: 27

Q: Bench note: what IC50 did lipocalin mutein SEQ ID NO: 2 (designed binder) QDSTSDLIPAPPLSKVPLQQNFQDNQFHGKWYVVGEAGNWGLREDKDPKKMAATIYELKEDKSYNVTDVQFIEKKCDYWIGTFVPGSQPGEFTLGAIKSEPGQTSNLVRVVSTNYNQHAMVFFKEVWQNRELFWITLYGRTKELTSELKENFIRFSKSLGLPENHIVFPVPIDQCIDGSAWSHPQFEK show?
Result: 47

Q: Bench note: what IC50 did lipocalin mutein SEQ ID NO: 6 (designed binder) QDSTSDLIPAPPLSKVPLQQNFQDNQFHGKWYVVGIAGNWWLREDKDPLKMYATIYELKEDKSYNVTHVMFMTKKCDYTIRTFVPGSQPGEFTLGNIKSIPGMTSLLVRVVSTNYNQHAMVFFKFVWQNREWFHITLYGRTKELTSELKENFIRFSKSLGLPENHIVFPVPIDQCIDGSAWSHPQFEK show?
Result: 1.6
